Let's look at some binders and their measured pKd.
- MEASURED TARGET: T1, recombinant C-terminally His-tagged human CD47 (extracellular domain) (human, UniProt Q08722 19-141)
- T1 construct: also called recombinantly expressed human CD47 extracellular domain
- T1 sequence (Q08722 19-141): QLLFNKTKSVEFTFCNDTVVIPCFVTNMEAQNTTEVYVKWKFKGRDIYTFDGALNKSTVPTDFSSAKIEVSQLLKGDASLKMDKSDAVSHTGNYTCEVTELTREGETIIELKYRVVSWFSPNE
- ASSAY OVERVIEW: SPR, Biacore X100; construct captured by anti-human Fc on CM5 chip, human CD47 extracellular domain as analyte, 1:1 fit
pKd: −log10 of the molar value.
EXPERIMENTAL ENDPOINT: pKd

# BINDER, REPORTED RESULT
measured = [
    ("2D6-005 (antibody, IgG4, V domains shown, hIgG4 (humanized IgG4), human kappa constant light chain from vector; only the variable domains are tied to the construct; also called VH2/VL1) VH: QVELVQSGPEVKKPGSSVKVSCKASGYTFPSYDINWVRQRPGQGLEWMGWIYPRDGSPKYNEKFKGRVTITADTSTSTAYMELHSLRSEDTAVYYCARSVYYGTQFAYWGQGTLVTVSA VL: DIVLTQSPSSLSASVGDRVTMSCKSSQSLLNSRTRKNYLAWYQQKPGKAPKLLIYWASTRDSGVPSRFSGSGSGTDFTLTISSLQPEDIATYYCKQSFNLVTFGGGTKLEIK", 6.75),
    ("2D6-016 (antibody, IgG4, V domains shown, hIgG4 (humanized IgG4); only the variable domains are tied to the construct; also called VH4/VL4) VH: QVQLVESGGGLVQPGGSLRLSCAASGYTFPSYDINWVRQAPGKGLEWVGWIYPRDGSPKYNEKFKGRFTISADTSKNTAYLQMNSLRAEDTAVYYCARSVYYGTQFAYWGQGTLVTVSS VL: DIVMTQSPSSLSASVGDRVTITCKSSQSLLNSRTRKNYLAWYQQKPGKAPKLLIYWASTRDSGVPDRFSGSGSGTDFTLTISSLQPEDFATYYCKQSFNLVTFGQGTKVEIK", 6.69),
    ("2D6-000 (antibody, V domains shown, Constant regions come from the vectors pFUSE-CHIg-hG4 and pFUSE2-CLIg-hk; also called anti-CD47 IgG4 (2D6-000)) VH: QVQLQQSGPELVKPGTSVTLSCKASGYTFPSYDINWMKQRPGQGLEWIGWIYPRDGSPKYNEKFKGKATLTVDTSSSTAYMELHSLTSEDSAVYFCARSVYYGTQFAYWGQGTLVTVSA VL: DIVMSQSPSSLAVSAGEKVTMSCKSSQSLLNSRTRKNYLAWYQQKPGQSPKLLIYWASTRDSGVPDRFTGSGSGTDFTLTISSVQAEDLAVYYCKQSFNLVTFGAGTKLELK", 7.25),
]
